Biological target: T1, LRIG1 (UniProt Q96JA1 Q96JA1:35-794)
T1 sequence: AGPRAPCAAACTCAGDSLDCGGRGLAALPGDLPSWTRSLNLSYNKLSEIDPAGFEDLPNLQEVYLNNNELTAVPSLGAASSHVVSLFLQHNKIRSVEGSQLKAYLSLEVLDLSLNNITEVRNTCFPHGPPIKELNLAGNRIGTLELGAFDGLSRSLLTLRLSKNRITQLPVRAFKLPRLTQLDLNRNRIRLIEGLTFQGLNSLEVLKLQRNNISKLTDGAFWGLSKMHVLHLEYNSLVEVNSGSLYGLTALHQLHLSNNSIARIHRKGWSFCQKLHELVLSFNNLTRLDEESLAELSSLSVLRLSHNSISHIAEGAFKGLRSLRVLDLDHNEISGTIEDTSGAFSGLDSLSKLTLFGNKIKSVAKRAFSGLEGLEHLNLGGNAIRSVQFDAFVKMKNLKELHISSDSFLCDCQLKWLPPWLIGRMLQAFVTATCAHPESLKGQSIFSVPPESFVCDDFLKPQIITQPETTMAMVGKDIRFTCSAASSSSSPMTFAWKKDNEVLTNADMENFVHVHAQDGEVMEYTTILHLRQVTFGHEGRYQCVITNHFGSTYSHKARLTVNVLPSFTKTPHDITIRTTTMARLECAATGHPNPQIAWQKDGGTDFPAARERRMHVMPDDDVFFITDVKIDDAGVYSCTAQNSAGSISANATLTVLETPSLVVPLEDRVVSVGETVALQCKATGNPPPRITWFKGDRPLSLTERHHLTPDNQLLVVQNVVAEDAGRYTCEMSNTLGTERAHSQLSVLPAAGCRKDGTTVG
Assay: flow; apparent; protein on Dynal His beads; no signal on non-protein beads
Settings: tags: His-tagged, immobilized on magnetic His-capture beads (Dynal His beads)

- BINDER: "Lrig1-Rd8-08 (clone 8) (XNA, 2'-F G; 2'-OMe A; 2'-OMe C; all T positions are 5-modified dU (Phe-dU)) DNA: GGGAAGGAGAGACGACGCGACACCCCCTTGAGTCACAGGTGTGTGAGCGCCGACGGCTTGGTACAGCAGACAAGACCGGACAAGAAGC"
  Kd: "~25 nM"
- BINDER: "Lrig1-Rd8-11 (clone 11) (XNA, 2'-F G; 2'-OMe A; 2'-OMe C; all T positions are 5-modified dU (Phe-dU)) DNA: GGGAAGGAGAGACGACGCGACACCCGCTTCACCGCTGTGTAACTGCGACGACGGACGTCAGATCAGCAGACAAGACCGGACAAGAAGC"
  Kd: "~35 nM"
